- System: HCT-15 colon
- assayComment: NCI-60 one-dose screen, 48 h (100 = growth as untreated, 0 = no growth, -100 = all killed)
- testConditions: 10 µM
This is part of a sample that, as a whole, favours compounds with a hit. Of some 83,000 tested, about 20% had one in any assay.
molecules and their reported growth
Form entry: value (%) — number only.

In: # get_value(readout= growth, system= HCT-15 colon) for `O=C(NCCNC(=O)c1ccc(F)cc1)Nc1ccc(-n2cc(-c3ccncc3)c(-c3ccc(Cl)c(O)c3)n2)cc1`
Out: 19.5

In: # get_value(readout= growth, system= HCT-15 colon) for `Cc1c[nH]c(=O)n(Cc2nnc(CCC(=O)c3nc4ccccc4[nH]3)o2)c1=O`
Out: 65.3

In: # get_value(readout= growth, system= HCT-15 colon) for `Cc1[nH]c2ccccc2c1/C=N/Nc1ncnc2sc3c(c12)CCN(CC(=O)OC(C)(C)C)C3`
Out: 30.1

In: # get_value(readout= growth, system= HCT-15 colon) for `COc1cc(-c2nn(-c3ccc(NC(=O)NCCCNC(=O)c4ccccc4)cc3)cc2-c2ccncc2)ccc1Cl`
Out: 20.3
